molecular target: HLA-A*0206 (human); test: inhibition of 125I probe peptide binding to purified HLA
reportedMetric: IC50 (nM)
Use nM as the unit, but write only the number.

Task: Given the entry LLLARAASLSL [Peptide 63.0136 LLLARAASLSL (PAP.6)] , report its measured IC50.
Result: 80
